Test system: M14 melanoma
Experiment: NCI tumour cell line growth inhibition, 48 h; in the data active = GI50 below about 0.43 µM; inactive = the rest
Could you please pick one outcome from this set? active, inactive

Query: Could you check what this test reported for COc1c(Nc2ncc(Cl)c(N[C@@H]3[C@H]4C=CC(C4)[C@@H]3C(N)=O)n2)ccc2c1CC[C@@H](N1CCOCC1)CC2 ?
Response: inactive

Query: Could you check what this test reported for NC(=O)Cc1ccccc1Oc1nccc(-c2c(-c3ccc(F)cc3)ncn2C2CCNCC2)n1 ?
Response: inactive

Query: Could you check what this test reported for Cc1oncc1C(=O)Nc1ccc(C(F)(F)F)cc1 ?
Response: inactive

Query: Could you check what this test reported for CCCCC(SC(=S)N(CC)CC)C(=O)Nc1nc(CC(=O)OCC)cs1 (stereo unspecified) ?
Response: inactive

Query: Could you check what this test reported for O=C1OCC2=C1C(c1ccccc1)c1cc3c(cc1N2CCO)CCC3 (stereo unspecified) ?
Response: active

Query: Could you check what this test reported for COC(=O)c1c2c(c[n+]([O-])c1C)C(=O)C(NCc1ccccc1)=CC2=O ?
Response: active

====

I'd appreciate it if you could supply TGI values for the items below.
Test system: A549 NSCLC
Test: NCI tumour cell line growth inhibition, 48 h

Query: Specify TGI for NC(N)=NS(=O)(=O)c1ccc(Nc2c3ccccc3nc3ccc(C(=O)Nc4ccc(S(N)(=O)=O)cc4)cc23)cc1 , system A549 NSCLC.
Response: > 100 µM

Query: Specify TGI for CC1=C(C)C(=O)c2c(cc3c4ccccc4ccn23)C1=O , system A549 NSCLC.
Response: > 100 µM

Query: Specify TGI for CCOC(=O)CC(=O)N(c1ccc(OC)cc1)C(C(=O)OC)c1ccccc1 (stereo not given) , system A549 NSCLC.
Response: > 100 µM

Query: Specify TGI for C[C@H]1O[C@@H](O[C@H]2[C@@H](O)C[C@H](O[C@H]3[C@@H](O)C[C@H](O[C@H]4CC[C@]5(C)C6C[C@@H](O)[C@]7(C)[C@@H](C8=CC(=O)OC8)CC[C@]7(O)C6CC[C@@H]5C4)O[C@@H]3C)O[C@@H]2C)C[C@H](O)[C@@H]1O (stereo not given in full) , system A549 NSCLC.
Response: 0.0581 µM

Query: Specify TGI for CNC(=S)NNC(=O)c1c(C)nc2sccn12 , system A549 NSCLC.
Response: > 100 µM

====

Tested on: HCT-116 colon
Test: NCI tumour cell line growth inhibition, 48 h
// label = condition met if TGI is not less than 4 µM, otherwise condition not met

Query: # bool: TGI of COc1ccc(C2Cc3cc(OC)c(OC)c(OC)c3C2=O)cc1 (configuration not stated) >= 4 µM
Response: condition met

Query: # bool: TGI of CC(=O)c1cc2c3c(c1)c1cc4c(cc1c(=O)n3CC2)OCO4 >= 4 µM
Response: condition met

Query: # bool: TGI of COC(=O)C1=C(C(=O)Nc2cccnc2)C2OC1(C(Cc1ccccc1)Oc1ccccc1)C1OC21 (configuration not stated) >= 4 µM
Response: condition met

Query: # bool: TGI of COc1cccc2c3cccc(OC)c3c3[nH]cnc3c12 >= 4 µM
Response: condition not met

Query: # bool: TGI of O=C(/C=C/c1ccccc1O)c1ccccc1 >= 4 µM
Response: condition not met

Query: # bool: TGI of C/C(=C\CNc1ncnc2nc(Cl)[nH]c12)CO >= 4 µM
Response: condition met

Query: # bool: TGI of CCN(CC)CC(O)CNc1ccc(NCC(O)CCl)c2c1C(=O)c1ccccc1C2=O (configuration not stated) >= 4 µM
Response: condition met
